# SYSTEM_NAME: SHP2 (PTPN11/SHP2-FL) (Homo sapiens)
# Construct: SHP2 (PTPN11/SHP2-FL, RBC produced, no cat #)
# Sequence (Q06124 whole entry): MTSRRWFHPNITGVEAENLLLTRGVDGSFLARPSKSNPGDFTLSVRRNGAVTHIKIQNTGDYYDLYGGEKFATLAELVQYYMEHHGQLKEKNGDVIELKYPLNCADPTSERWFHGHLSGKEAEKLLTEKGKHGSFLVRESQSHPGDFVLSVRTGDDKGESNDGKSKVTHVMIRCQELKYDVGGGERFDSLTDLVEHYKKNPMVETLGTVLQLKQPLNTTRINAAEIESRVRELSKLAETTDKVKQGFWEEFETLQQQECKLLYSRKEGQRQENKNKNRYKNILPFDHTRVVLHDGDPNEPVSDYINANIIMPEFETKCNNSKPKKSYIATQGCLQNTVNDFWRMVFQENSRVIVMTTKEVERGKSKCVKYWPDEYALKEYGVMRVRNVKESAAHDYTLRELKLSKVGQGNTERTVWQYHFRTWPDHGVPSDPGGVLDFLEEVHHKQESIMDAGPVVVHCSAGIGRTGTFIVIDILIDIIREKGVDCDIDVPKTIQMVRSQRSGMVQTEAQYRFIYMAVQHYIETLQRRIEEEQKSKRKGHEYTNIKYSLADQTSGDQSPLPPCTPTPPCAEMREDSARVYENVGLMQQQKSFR
# EXPERIMENT_SUMMARY: SHP2 biochemical assay (DiFMUP prompt fluorescence)
# EXPERIMENTAL_CONTEXT: 0.5 nM SHP2, 0.35 μM activating peptide, DiFMUP 100 μM; read-out: SHP2 bichemical activity (IC50)
pIC50: −log10 of the molar value.
EXPERIMENTAL_ENDPOINT: pIC50

CC1(CN)CCN(c2cnc(Sc3cccc(C(=O)NS(=O)(=O)c4ccccc4)c3Cl)cn2)CC1 ≥ 8.00

Query :: Look up pIC50 for this compound: "CC1(CN)CCN(c2cnc(Sc3cccc(C(=O)NS(C)(=O)=O)c3Cl)cn2)CC1"
Result :: ≥ 8.00
